target: mGluR2 receptor (metabotropic glutamate receptor 2) (Homo sapiens); construct: expressed in transfected cells; experiment: mGluR2 Potentiator Screen, FLIPR, EC10-EC20 glutamate challenge; format: cell-based
Sequence (Q14416 19-872, species assumed): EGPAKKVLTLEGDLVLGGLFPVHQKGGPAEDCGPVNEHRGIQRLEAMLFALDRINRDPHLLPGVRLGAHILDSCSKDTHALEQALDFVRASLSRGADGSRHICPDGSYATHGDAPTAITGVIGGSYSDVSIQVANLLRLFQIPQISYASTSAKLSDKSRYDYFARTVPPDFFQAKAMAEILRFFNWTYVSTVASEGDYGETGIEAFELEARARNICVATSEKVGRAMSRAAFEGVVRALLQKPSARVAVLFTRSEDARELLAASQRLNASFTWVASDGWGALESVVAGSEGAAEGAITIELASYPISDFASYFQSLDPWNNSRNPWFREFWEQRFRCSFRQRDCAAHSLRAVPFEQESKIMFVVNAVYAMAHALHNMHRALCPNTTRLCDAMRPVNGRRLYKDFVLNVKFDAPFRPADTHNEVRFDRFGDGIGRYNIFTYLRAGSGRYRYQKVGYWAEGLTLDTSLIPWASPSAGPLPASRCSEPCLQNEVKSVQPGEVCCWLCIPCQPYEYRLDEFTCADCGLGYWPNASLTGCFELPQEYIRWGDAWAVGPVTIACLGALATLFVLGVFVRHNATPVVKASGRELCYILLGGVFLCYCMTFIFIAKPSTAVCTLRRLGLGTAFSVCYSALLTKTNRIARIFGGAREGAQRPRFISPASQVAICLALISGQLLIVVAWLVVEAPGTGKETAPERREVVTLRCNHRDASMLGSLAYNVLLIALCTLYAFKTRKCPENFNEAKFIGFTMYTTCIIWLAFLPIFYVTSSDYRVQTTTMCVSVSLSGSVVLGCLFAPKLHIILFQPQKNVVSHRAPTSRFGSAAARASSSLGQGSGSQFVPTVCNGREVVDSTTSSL
pEC50: −log10 of the molar value.
Give true (1) when the value for pEC50 is at least 7. Give false (0) when it is less.

Inquiry: Does pEC50 meet or surpass 7 for Cn1c(CN2CCC(c3cccc(Cl)c3)CC2)nc2ncccc21 ?
Reply text: false (0)

Inquiry: Does pEC50 meet or surpass 7 for COc1ccc(Cl)cc1C1CCN(Cc2nc3cccnc3n2C)CC1 ?
Reply text: false (0)

Inquiry: Does pEC50 meet or surpass 7 for C[C@@H]1CN(Cc2nc3ncccc3n2C)CC[C@@H]1c1ccc(C(F)(F)F)cc1C(F)(F)F (relative stereo) ?
Reply text: true (1)

Inquiry: Does pEC50 meet or surpass 7 for C[C@@H]1CN(Cc2nc3cnccc3n2C)CC[C@@H]1c1ccc(OC(F)(F)F)cc1 (single isomer, unassigned) [compound 175] ?
Reply text: false (0)

Inquiry: Does pEC50 meet or surpass 7 for COc1cc(F)ccc1C1CCN(Cc2nc3cnccc3n2C)CC1 ?
Reply text: false (0)

Inquiry: Does pEC50 meet or surpass 7 for COc1ccc([C@H]2CCN(Cc3nc4ncccc4n3C)C[C@H]2C)c(C(F)(F)F)c1 (relative stereo) ?
Reply text: false (0)

Inquiry: Does pEC50 meet or surpass 7 for C[C@@H]1CN(Cc2nc3ncccc3n2C)CC[C@@H]1c1ccc(F)cc1C(F)(F)F (relative stereo) ?
Reply text: true (1)

Inquiry: Does pEC50 meet or surpass 7 for Cn1c(CN2CCC(c3ccccc3C(F)(F)F)CC2)nc2cnccc21 ?
Reply text: false (0)

Inquiry: Does pEC50 meet or surpass 7 for C[C@@H]1CN(Cc2nc3cnccc3n2C)CC[C@@H]1c1ccc(OC(F)(F)F)cc1F (relative stereo) [compound 146] ?
Reply text: true (1)

Inquiry: Does pEC50 meet or surpass 7 for CC(C)Oc1ccc([C@H]2CCN(Cc3nc4cnccc4n3C)C[C@H]2C)c(F)c1 (relative stereo) [compound 167] ?
Reply text: false (0)

Inquiry: Does pEC50 meet or surpass 7 for CC(C)Oc1ccc([C@H]2CCN(Cc3nc4cnccc4n3C)C[C@H]2C)c(F)c1 (single isomer, unassigned) [compound 220] ?
Reply text: false (0)
